experiment: rapamycin-like changes in RPL19A-GFP expression – cell-based, S. cerevisiae, multiplex flow cytometry, primary screen (AID 1862);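 note: lower values mimic rapamycin by blocking the RPL19A rise seen in DMSO cells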; conditions: S. cerevisiae RPL19A-GFP strain, flow cytometry fluorescence, 3 h; at 10 µM; hits give low values
Results filed as inconclusive are left out.
Attribute: percent of DMSO control GFP
reported-metric: percent of DMSO control GFP (%)

- molecule: "CC(=O)OCC(=O)[C@H]1CC[C@H]2[C@@H]3CCC4=CC(=O)CC[C@]4(C)[C@H]3CC[C@]12C"
  unit: "%"
  observed-result: 89.1
- molecule: "O=C(Nc1nc2ccccc2s1)c1ccc(F)cc1"
  unit: "%"
  observed-result: 100
- molecule: "NC(=O)c1ccccc1O"
  unit: "%"
  observed-result: 103
- molecule: "Cc1ccc2c(CC(=O)O)coc2c1"
  unit: "%"
  observed-result: 104
- molecule: "CC(C)C(CCN1C(=O)CCC1=O)C1CCOC(C)(C)C1 (stereo unspecified)"
  unit: "%"
  observed-result: 103
- molecule: "CC(C)=CCCC1=CCC2C(=O)NNC(=O)C2C1 (stereo unspecified)"
  unit: "%"
  observed-result: 98.8
